Examples of compounds with documented EC50 follow.
# Target: mMC5R (Mus musculus, UniProt P41149)
# Sequence (P41149 whole entry): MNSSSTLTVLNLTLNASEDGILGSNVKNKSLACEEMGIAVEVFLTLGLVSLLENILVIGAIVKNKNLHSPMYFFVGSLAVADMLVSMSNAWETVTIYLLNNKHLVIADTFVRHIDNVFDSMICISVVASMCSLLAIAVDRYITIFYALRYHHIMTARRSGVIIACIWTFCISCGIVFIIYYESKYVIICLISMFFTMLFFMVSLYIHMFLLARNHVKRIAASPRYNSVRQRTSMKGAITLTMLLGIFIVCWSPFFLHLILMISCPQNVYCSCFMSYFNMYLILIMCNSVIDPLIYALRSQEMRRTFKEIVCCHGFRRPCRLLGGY
# Protocol Details: cAMP based functional bioassay (CRE/β-galactosidase reporter), agonist activity at mMC5R
Output spec: scalar in nM, unitless text.

Field: example entries. Status: answers known.
CC(C)CCCN1C(=N)N([C@H](Cc2ccccc2)CN2CCC[C@H]2CN2C(=N)NC[C@H]2CC(C)C)C[C@H]1C(C)C ... 1260
CCC[C@@H]1CN([C@H](Cc2ccccc2)CN2CCC[C@H]2CN2C(=N)NC[C@H]2CC(C)C)C(=N)N1CCCC(C)C ... 2180
CCC[C@@H]1CN([C@H](CC2CCCCC2)CN2CCC[C@H]2CN2C(=N)NC[C@H]2C(C)C)C(=N)N1CC1CCC(C(C)(C)C)CC1 (stereo partly drawn) ... 540
CC(C)C[C@@H]1CNC(=N)N1C[C@@H]1CCCN1C[C@@H](Cc1ccccc1)N1C[C@@H]([C@@H](C)O)N(CC23CC4CC(CC(C4)C2)C3)C1=N ... 810

(Q) # return recorded EC50 for input CCC[C@@H]1CN([C@H](CC2CCCCC2)CN2CCC[C@H]2CN2C(=N)NC[C@H]2C(C)C)C(=N)N1CCCC(C)C
(A) 1040

(Q) For CC(C)CCCN1C(=N)N([C@H](CC2CCCCC2)CN2CCC[C@H]2CN2C(=N)NC[C@H]2C(C)C)C[C@H]1[C@@H](C)O , write its EC50.
(A) 740

(Q) Please list EC50 recorded for the compound CC(C)[C@@H]1CNC(=N)N1C[C@@H]1CCCN1C[C@@H](CC1CCCCC1)N1C[C@@H]([C@@H](C)O)N(CC2CCC(C(C)(C)C)CC2)C1=N (stereo partly drawn)
(A) 150

(Q) For CCC[C@@H]1CN([C@H](Cc2ccccc2)CN2CCC[C@H]2CN2C(=N)NC[C@H]2CC(C)C)C(=N)N1CC12CC3CC(CC(C3)C1)C2 , write its EC50.
(A) 610
